# credit: patent US20250129002A1

# Tested on: Cysteine-containing peptide for DPRA
# ASSAY EXPLANATION: Skin sensitization test in accordance with DPRA (direct peptide reactivity assay)
# CONDITION INFO: relative to peptide decrease percentage of Comparative Example 1 regarded as 100; 50 μL 1,3-butylene glycol with 0.667 mM peptide solution; HPLC after 72±2 hours; average of three measurements
Kindly state Relative value of peptide decrease percentage for each of the entries shown.

Exercise: Need Relative value of peptide decrease percentage of CC(O)CCO (stereo not shown) [Comparative Example 2, 1,3-butylene glycol] , thanks.
Key: 121

Exercise: Need Relative value of peptide decrease percentage of CC(O)CCO (stereo not shown) [Example 2, 1,3-butylene glycol] , thanks.
Key: 85

Exercise: Need Relative value of peptide decrease percentage of CC(O)CCO (stereo not shown) [Example 1, 1,3-butylene glycol] , thanks.
Key: 73

Exercise: Need Relative value of peptide decrease percentage of CC(O)CCO (stereo not shown) [Comparative Example 1, 1,3-butylene glycol] , thanks.
Key: 100
